test system: EKVX NSCLC; test: NCI-60 one-dose screen, 48 h; details: 10 µM unless noted
Compounds without any hit were thinned out: in the full panel of roughly 83,000, 20% have a hit. The source made the active and inactive calls. Rule for the calls: active = growth percent below 10; inactive = the rest.
Parameter call: string, one of T for active, F for inactive

Prompt: Query: recorded result category for `COc1cc(/C=C/C(=O)c2ccc(N3CCN(C)CC3)cc2)ccc1F` in this test
Completion: F

Prompt: Here is the next compound: `COc1ccc(OC)c(NC2=C(Cl)C(=O)C(C)=C(C)C2=O)c1`
Completion: F

Prompt: Here is the next compound: `O=c1[nH]c(CNc2ccc(NCc3c(-c4ccccc4)no[n+]3[O-])cc2)nc2c1cnn2-c1ccccc1`
Completion: F

Prompt: Here is the next compound: `O=C1Nc2cc(OC(F)(F)F)ccc2Oc2ccc(-c3ccnc(N4CC[C@H](O)C4)c3)cc21`
Completion: F

Prompt: Here is the next compound: CCCC(=O)NC(c1cccnc1)c1cc(Cl)c2cccnc2c1O (stereo not drawn)
Completion: F

Prompt: Here is the next compound: `C=CCn1c(SCC(=O)Nc2cccc(C(=O)/C=C/c3cc(OC)c(OC)c(OC)c3)c2)nc2ccccc2c1=O`
Completion: F

Prompt: Here is the next compound: `C=C(C)C(=O)O[C@H]1C[C@@]2(C)OC(=CC2=O)/C(C)=C\[C@H]2OC(=O)C(=C)[C@H]12`
Completion: F

Prompt: Here is the next compound: `CCOC(=O)c1nn(-c2ccc(C)cc2)c(=O)c2c(N)c(C#N)c(-c3ccc(OC)cc3)cc12`
Completion: F

Prompt: Here is the next compound: `COc1ccc(/C=N\NC(=O)c2ccc3nc(-c4ccc(Br)cc4)[nH]c3c2)cc1`
Completion: F

Prompt: Here is the next compound: CS(=O)c1nccc(-c2c(-c3ccc(F)c(OCc4ccc(F)cc4)c3)nc3sccn23)n1 (stereo not drawn)
Completion: F

Prompt: Here is the next compound: `COc1cc2oc(-c3cccc(NC(=O)c4cc(NC(=O)[C@H](C)NC(=O)OC(C)(C)C)ccc4C)c3)cc(=O)c2c(OC)c1OC`
Completion: F

Prompt: Here is the next compound: `COc1ccc(Cn2cc3c(c2-c2cc(OC)c(OC)c(OC)c2)CCCc2cnoc2-3)cc1N`
Completion: F

Prompt: Here is the next compound: `NS(=O)(=O)c1ccc(-n2cc(CC=O)nn2)cc1`
Completion: F

Prompt: Here is the next compound: C#CCOc1ccc(C(Nc2ccc(OC)cc2)c2nnnn2C2CCCCC2)cc1 (stereo not drawn)
Completion: F

Prompt: Here is the next compound: `CNC(=O)c1cc(Oc2ccc3nc(NC(=O)c4ccc(CN5CCCN(C)CC5)c(C(F)(F)F)c4)sc3c2)ccn1`
Completion: F

Prompt: Here is the next compound: `CCOc1ccc2nc(NC(=O)Nc3ccccc3C)sc2c1`
Completion: F

Prompt: Here is the next compound: CC(c1ccccc1)N1C(=O)/C(=C/c2csc(C#N)n2)SC1=S (stereo not drawn)
Completion: F

Prompt: Here is the next compound: `O=C(NNc1nc2cc(F)cc(F)c2n2cccc12)c1ccncn1`
Completion: T

Prompt: Here is the next compound: `O=C1c2c(c3c4cccnc4[nH]c3c3ccc4ccccc4c23)C(=O)N1CCN1CCNCC1`
Completion: F

Prompt: Here is the next compound: `CNC(=O)c1c(NC(=O)c2ccc(F)cc2F)sc2c1CCC(=O)C2`
Completion: F

Prompt: Here is the next compound: `C/C(Cc1ccc(Cl)cc1)=C(/c1ccccc1)c1ccc(OCCN)cc1`
Completion: F

Prompt: Here is the next compound: Cn1c(SC(C(=O)Nc2ccc(F)cc2)c2ccccc2)nc2ccccc2c1=O (stereo not drawn)
Completion: F

Prompt: Here is the next compound: `O=C(COc1ccc(/C=C2\SC(=O)NC2=O)cc1)Nc1ccc(C(=O)/C=C/c2cc3ccccc3nc2Cl)cc1`
Completion: F

Prompt: Here is the next compound: `COc1ccc2c(c1)c(-c1nnc(N)nc1-c1cn(C)c3ccccc13)cn2C`
Completion: F

Prompt: Here is the next compound: `O=C1Nc2cc(OC(F)(F)F)ccc2Oc2ccc(-c3ccnc(N4CCNCC4)c3)cc21`
Completion: F

Prompt: Here is the next compound: `Oc1ccc(-c2nnc(SCc3ccc(O)c4ncccc34)o2)cc1`
Completion: F

Prompt: Here is the next compound: `CS(=O)(=O)c1ccc(-c2nn(-c3ccccc3)cc2/C=C/C(=O)c2ccc(Br)cc2)cc1`
Completion: F

Prompt: Here is the next compound: `N#Cc1c(NC(=O)c2ccc(F)c(Cl)c2)sc2c1CCC(=O)C2`
Completion: F

Prompt: Here is the next compound: Cc1cccc(NC(c2cc3cccc4ccc5cccc2c5c43)c2nnnn2C(C)(C)C)c1C (stereo not drawn)
Completion: F

Prompt: Here is the next compound: `Cn1cc(-c2nn3cc(-c4ccncc4)nc3s2)c2cc(Cl)ccc21`
Completion: F

Prompt: Here is the next compound: `C#C[C@]1(O)CC[C@H]2[C@@H]3CC=C4c5sc(C6CCOCC6)nc5CC[C@]4(C)[C@H]3CC[C@@]21C`
Completion: F

Prompt: Here is the next compound: `CC(C)=CCc1c(O)c(CC=C(C)C)c2c(c1O)C(=O)C1=C[C@@H]3C[C@H]4C(C)(C)O[C@@](C/C=C(\C)C(=O)O)(C3=O)[C@@]14O2`
Completion: T

Prompt: Here is the next compound: COc1ccc(C2CC(c3ccc(Nc4nc(NCCO)nc(Nc5ccc(Cl)cc5)n4)cc3)=Nc3c(N)nc(N)nc3N2)cc1 (stereo not drawn)
Completion: F

Prompt: Here is the next compound: COc1ccc(C2C(C#N)=C(N)Oc3c2sc2ccc(C)cc32)cc1 (stereo not drawn)
Completion: F

Prompt: Here is the next compound: `N#Cc1ccc(S(=O)(=O)Nc2ccc(-c3cnc(N)[nH]3)cc2)cc1`
Completion: F

Prompt: Here is the next compound: `CS(=O)(=O)c1nccc(-c2c(-c3ccc(F)c(OCCc4ccc(F)cc4)c3)nc3sccn23)n1`
Completion: T

Prompt: Here is the next compound: `Nc1nc(-c2cccc([N+](=O)[O-])c2)c(N=Nc2cccc(Cl)c2)s1`
Completion: F

Prompt: Here is the next compound: CS(=O)c1nccc(-c2c(-c3ccc(F)c(OCc4ccccc4)c3)nc3sccn23)n1 (stereo not drawn)
Completion: F
